What Percent inhibition of human CETP mRNA was measured for each of the following?
Tested on: human CETP mRNA
experimental_details: Antisense inhibition of human CETP mRNA in primary hepatocytes from huCETP transgenic mice (Example 4)
Assay type: cell-based, mouse
condition_description: 100 nM, cytofectin, ~24 hours
Strand notation (5' to 3'): a small letter for the sugar, then the base; units joined by * are phosphorothioate-linked, units joined directly phosphodiester-linked; [ ] holds rarer units or linkages, { } end groups; capitals alone tell only the bases. e = 2'-O-(2-methoxyethyl) (MOE); [5mC] = 5-methylcytosine; d = 2'-deoxy (DNA)
Numbers only; they are read as %.

INPUT: Tell me Percent inhibition of human CETP mRNA of ISIS 349466: 5-10-5 MOE gapmer CCACAGACACGTTCTGAATG (e[5mC]*e[5mC]*eA*e[5mC]*eA*dG*dA*d[5mC]*dA*d[5mC]*dG*dT*dT*d[5mC]*dT*eG*eA*eA*eT*eG) when tested on human CETP mRNA.
OUTPUT: 57

INPUT: Tell me Percent inhibition of human CETP mRNA of ISIS 349488: 5-10-5 MOE gapmer GCACTGCCTTGAACTCGTCT (eG*e[5mC]*eA*e[5mC]*eT*dG*d[5mC]*d[5mC]*dT*dT*dG*dA*dA*d[5mC]*dT*e[5mC]*eG*eT*e[5mC]*eT) when tested on human CETP mRNA.
OUTPUT: 77

INPUT: Tell me Percent inhibition of human CETP mRNA of ISIS 349481: 5-10-5 MOE gapmer AGGTAGGAGGCTGTGATGAC (eA*eG*eG*eT*eA*dG*dG*dA*dG*dG*d[5mC]*dT*dG*dT*dG*eA*eT*eG*eA*e[5mC]) when tested on human CETP mRNA.
OUTPUT: 79

INPUT: Tell me Percent inhibition of human CETP mRNA of ISIS 349516: 5-10-5 MOE gapmer CATCTCCGTACTCCTAACCC (e[5mC]*eA*eT*e[5mC]*eT*d[5mC]*d[5mC]*dG*dT*dA*d[5mC]*dT*d[5mC]*d[5mC]*dT*eA*eA*e[5mC]*e[5mC]*e[5mC]) when tested on human CETP mRNA.
OUTPUT: 78

INPUT: Tell me Percent inhibition of human CETP mRNA of ISIS 349445: 5-10-5 MOE gapmer CAGCAGGGTCTTCCTGGCCC (e[5mC]*eA*eG*e[5mC]*eA*dG*dG*dG*dT*d[5mC]*dT*dT*d[5mC]*d[5mC]*dT*eG*eG*e[5mC]*e[5mC]*e[5mC]) when tested on human CETP mRNA.
OUTPUT: 74
